Molecular target: EGFR wildtype (WT) (Homo sapiens)
Sequence (P00533 25-1210): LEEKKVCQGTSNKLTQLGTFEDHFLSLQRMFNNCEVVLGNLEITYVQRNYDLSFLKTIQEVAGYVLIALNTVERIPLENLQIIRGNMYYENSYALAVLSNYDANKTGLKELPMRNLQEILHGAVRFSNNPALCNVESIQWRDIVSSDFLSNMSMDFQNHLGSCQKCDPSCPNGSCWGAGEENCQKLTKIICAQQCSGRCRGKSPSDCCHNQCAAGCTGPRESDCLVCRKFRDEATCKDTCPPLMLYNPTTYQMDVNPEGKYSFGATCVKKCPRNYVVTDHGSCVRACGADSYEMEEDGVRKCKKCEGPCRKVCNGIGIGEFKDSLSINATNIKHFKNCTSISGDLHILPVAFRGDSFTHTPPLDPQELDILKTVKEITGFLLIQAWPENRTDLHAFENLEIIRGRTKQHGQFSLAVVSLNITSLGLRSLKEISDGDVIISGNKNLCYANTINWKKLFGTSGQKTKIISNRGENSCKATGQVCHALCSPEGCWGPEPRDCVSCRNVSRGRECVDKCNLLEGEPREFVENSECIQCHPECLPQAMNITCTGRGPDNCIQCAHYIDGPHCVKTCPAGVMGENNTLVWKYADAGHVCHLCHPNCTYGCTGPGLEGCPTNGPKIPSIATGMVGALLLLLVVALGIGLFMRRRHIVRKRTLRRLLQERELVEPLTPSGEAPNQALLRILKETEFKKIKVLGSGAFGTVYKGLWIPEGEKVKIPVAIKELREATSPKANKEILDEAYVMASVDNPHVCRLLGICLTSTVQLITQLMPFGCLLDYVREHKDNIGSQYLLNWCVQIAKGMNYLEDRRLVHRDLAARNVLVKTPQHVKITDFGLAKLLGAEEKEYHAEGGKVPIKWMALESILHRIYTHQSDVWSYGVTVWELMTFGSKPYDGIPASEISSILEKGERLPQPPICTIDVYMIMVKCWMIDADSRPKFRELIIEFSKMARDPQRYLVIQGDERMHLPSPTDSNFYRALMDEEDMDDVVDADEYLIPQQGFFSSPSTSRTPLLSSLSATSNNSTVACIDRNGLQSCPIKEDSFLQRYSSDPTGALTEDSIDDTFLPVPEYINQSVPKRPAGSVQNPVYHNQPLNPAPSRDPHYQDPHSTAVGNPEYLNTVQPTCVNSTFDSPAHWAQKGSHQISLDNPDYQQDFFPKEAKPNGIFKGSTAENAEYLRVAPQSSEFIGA
Experiment: Biochemical EGFR kinase inhibition assay (Lance Ultra TR-FRET), wildtype
Conditions: IC50 WT (nM), 100 μM ATP
Metric name: IC50

CC1(CO)CCN(c2cc(Nc3ccnc(-c4cnn(S(=O)(=O)C5CC5)c4)n3)ncc2C#CC2(O)COC2)CC1 [Example 354]    1630 nM
Cn1cc(C#Cc2cnc(Nc3ccnc(-c4cnn(S(=O)(=O)C5CC5)c4)n3)cc2N2CCC3(CC2)CC(C)(O)C3)cn1 [Example 13]    3090 nM
CN1CCN(C2CCN(c3cc(Nc4ccnc(-c5cnn(S(=O)(=O)C6CC6)c5)n4)ncc3C#Cc3ccsc3)CC2)CC1 [Example 226]    > 10000 nM

Query CC1(CO)CCN(c2cc(Nc3ccnc(-c4cnn(CC(F)F)c4)n3)ncc2C#Cc2cnn(C(F)(F)F)c2)CC1 [Example 267] yields IC50 of > 10000 nM

Query CC1(O)CCC(CNc2cc(Nc3ccnc(-c4cnn(S(=O)(=O)C5CC5)c4)n3)ncc2C#CC2CCCO2)CC1 (centres unmarked) [Example 377] yields IC50 of > 10000 nM

Query CC(=O)N1CCC(n2cc(C#Cc3cnc(Nc4ccnc(-c5cnn(S(=O)(=O)C6CC6)c5)n4)cc3N3CCC(F)(CO)CC3)cn2)CC1 [Example 111] yields IC50 of 4380 nM

Query CC(C)Nc1cc(Nc2ccnc(-c3cnn(S(=O)(=O)C4CC4)c3)n2)ncc1C#CC(C)(C)O [Example 204] yields IC50 of > 10000 nM

Query CN1CCN(Cc2ccc(C#Cc3cnc(Nc4ccnc(-c5cnn(S(=O)(=O)C6CC6)c5)n4)cc3N[C@H]3CC[C@]4(CCC(=O)N4)CC3)cc2)CC1 [Example 362] yields IC50 of 4900 nM

Query CS(=O)(=O)N1CCC(C#Cc2cnc(Nc3ccnc(-c4cnn(S(=O)(=O)C5CC5)c4)n3)cc2NC2CCC(O)CC2)C1 (centres unmarked) [Example 399] yields IC50 of > 10000 nM

Query CC1(CO)CCN(c2cc(Nc3ccnc(-c4cnn(S(=O)(=O)C5CC5)c4)n3)ncc2C#CCC2(O)COC2)CC1 [Example 286] yields IC50 of 4300 nM

Query COC1(O)CCN(c2cc(Nc3ccnc(-c4cnn(S(=O)(=O)C5CC5)c4)n3)ncc2C#Cc2ncc(CN3CCOCC3)cn2)CC1 [Example 365] yields IC50 of > 10000 nM

Query Cn1cc(C#Cc2cnc(Nc3ccnc(-c4cnn(S(=O)(=O)C5CC5)c4)n3)cc2N[C@@H]2CCC[C@H](O)C2)cn1 [Example 45] yields IC50 of > 10000 nM

Query CC(C)(O)[C@H]1CC[C@@H](Nc2cc(Nc3ccnc(-c4cnn(S(=O)(=O)C5CC5)c4)n3)ncc2C#Cc2cnn(C(F)(F)F)c2)CC1 [Example 337] yields IC50 of > 10000 nM

Query Cn1cc(C#Cc2cnc(Nc3ccnc(-c4cnn(S(=O)(=O)C5CC5)c4)n3)cc2N2CCC3(CCNCC3)C2)cn1 [Example 154] yields IC50 of 6720 nM

Query CN(C)CCCn1cc(C#Cc2cnc(Nc3ccnc(-c4cnn(S(=O)(=O)C5CC5)c4)n3)cc2N2CCC(NCCF)CC2)cn1 [Example 145] yields IC50 of 5550 nM

Query Cn1cnc(C#Cc2cnc(Nc3ccnc(-c4cnn(S(=O)(=O)C5CC5)c4)n3)cc2N[C@H]2CC[C@@H](O)CC2)n1 [Example 167] yields IC50 of > 10000 nM

Query O=S(=O)(C1CC1)n1cc(-c2nccc(Nc3cc(N[C@H]4CC[C@@H](CO)CC4)c(C#Cc4cnn(CC(F)(F)F)c4)cn3)n2)cn1 [Example 340] yields IC50 of > 10000 nM

Query Cn1cc(C#Cc2cnc(Nc3ccnc(-c4cnn(S(=O)(=O)C5CC5)c4)n3)cc2N2CCC(NS(C)(=O)=O)CC2)cn1 [Example 63] yields IC50 of > 10000 nM

Query Cn1cc(C#Cc2cnc(Nc3ccnc(-c4cnn(S(=O)(=O)C5CC5)c4)n3)cc2N[C@H]2CCC[C@@H](O)C2)cn1 [Example 75] yields IC50 of > 10000 nM

Query O=S(=O)(C1CC1)n1cc(-c2nccc(Nc3cc(N[C@H]4CC[C@@H](O)CC4)c(C#Cc4ccc(CN5CCOCC5)s4)cn3)n2)cn1 [Example 190] yields IC50 of > 10000 nM

Query CN1CCC(C#Cc2cnc(Nc3ccnc(-c4cnn(S(=O)(=O)C5CC5)c4)n3)cc2N2CCC3(CCO3)CC2)C1 (centres unmarked) [Example 373] yields IC50 of 9540 nM

---

Let's look at some compounds and their measured log10 of IC50.
Target: EGFR Del19/T790M/C797S (Homo sapiens, UniProt P00533, C797S/DEL746-750/T790M)
Sequence (P00533 with tags, fused parts or gaps DEL746-750/T790M/C797S): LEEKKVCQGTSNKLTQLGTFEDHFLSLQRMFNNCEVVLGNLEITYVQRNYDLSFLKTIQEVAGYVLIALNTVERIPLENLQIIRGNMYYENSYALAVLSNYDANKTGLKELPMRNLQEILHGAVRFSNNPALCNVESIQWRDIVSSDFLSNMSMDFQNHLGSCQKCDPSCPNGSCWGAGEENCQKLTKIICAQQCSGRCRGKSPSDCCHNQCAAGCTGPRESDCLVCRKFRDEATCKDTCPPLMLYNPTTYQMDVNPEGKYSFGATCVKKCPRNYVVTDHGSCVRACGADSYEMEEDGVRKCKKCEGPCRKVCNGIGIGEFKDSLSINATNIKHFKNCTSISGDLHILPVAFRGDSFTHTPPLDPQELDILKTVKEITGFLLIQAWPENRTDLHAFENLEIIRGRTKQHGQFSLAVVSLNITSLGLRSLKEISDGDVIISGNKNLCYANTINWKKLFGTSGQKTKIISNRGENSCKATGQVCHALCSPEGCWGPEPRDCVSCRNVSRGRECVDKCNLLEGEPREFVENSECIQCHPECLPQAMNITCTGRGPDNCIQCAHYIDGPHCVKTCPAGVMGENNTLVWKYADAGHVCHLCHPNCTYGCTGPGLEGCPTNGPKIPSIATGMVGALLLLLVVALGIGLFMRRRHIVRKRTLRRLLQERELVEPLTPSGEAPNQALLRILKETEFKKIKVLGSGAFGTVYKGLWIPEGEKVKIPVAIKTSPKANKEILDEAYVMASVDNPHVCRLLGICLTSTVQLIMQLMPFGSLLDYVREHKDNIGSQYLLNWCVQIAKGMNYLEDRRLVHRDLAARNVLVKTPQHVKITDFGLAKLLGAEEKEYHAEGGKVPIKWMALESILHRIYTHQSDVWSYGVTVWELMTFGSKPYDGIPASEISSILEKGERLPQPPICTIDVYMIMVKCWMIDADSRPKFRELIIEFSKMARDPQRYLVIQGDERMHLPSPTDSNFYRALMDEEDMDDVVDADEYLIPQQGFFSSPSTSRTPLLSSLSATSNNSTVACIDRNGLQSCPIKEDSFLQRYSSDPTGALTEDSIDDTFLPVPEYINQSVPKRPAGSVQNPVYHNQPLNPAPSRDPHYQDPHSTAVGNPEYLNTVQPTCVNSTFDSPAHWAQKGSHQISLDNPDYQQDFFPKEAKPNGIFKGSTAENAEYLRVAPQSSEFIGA
Experiment: Biochemical EGFR kinase inhibition assay (Lance Ultra TR-FRET), triple mutant del19/T790M/C797S
Conditions: Km ATP; read-out: IC50 Del19/T790M/C797S (nM), Km ATP
Heads up, the numbers here are log10 of IC50 in nM units.

CC1(C#Cc2cnc(Nc3ccnc(-c4cnn(S(=O)(=O)C5CC5)c4)n3)cc2N[C@H]2CC[C@@H](O)CC2)CC1    -0.05
O=S(=O)(C1CC1)n1cc(-c2nccc(Nc3cc(NC4CCC(O)CC4)c(C#CC4(F)CCOC4)cn3)n2)cn1 (stereo not drawn)    -1.00
CC1(O)CCN(c2cc(Nc3ccnc(-c4cnn(S(=O)(=O)C5CC5)c4)n3)ncc2C#Cc2ccc(C(=O)N3CCC(O)CC3)cc2)CC1    -0.15
CN(C)CCC1CCN(c2cc(Nc3ccnc(-c4cnn(S(=O)(=O)C5CC5)c4)n3)ncc2C#CC2CCO[C@H]2C(F)(F)F)CC1 (stereo partly drawn)    0.04
O=S(=O)(C1CC1)n1cc(-c2nccc(Nc3cc(N4C[C@@H]5[C@@H](CO)[C@@H]5C4)c(C#Cc4cnn(C(F)(F)F)c4)cn3)n2)cn1    0.79

Query O=S1(=O)CCC(C#Cc2cnc(Nc3ccnc(-c4cnn(S(=O)(=O)C5CC5)c4)n3)cc2NC2CCC(CO)CC2)C1 (stereo not drawn) yields log10 of IC50 of -1.00

---

Target: EGFR L858R/T790M/C797S (Homo sapiens, UniProt P00533, C797S/L858R/T790M)
Sequence (P00533 25-1210 T790M/C797S/L858R): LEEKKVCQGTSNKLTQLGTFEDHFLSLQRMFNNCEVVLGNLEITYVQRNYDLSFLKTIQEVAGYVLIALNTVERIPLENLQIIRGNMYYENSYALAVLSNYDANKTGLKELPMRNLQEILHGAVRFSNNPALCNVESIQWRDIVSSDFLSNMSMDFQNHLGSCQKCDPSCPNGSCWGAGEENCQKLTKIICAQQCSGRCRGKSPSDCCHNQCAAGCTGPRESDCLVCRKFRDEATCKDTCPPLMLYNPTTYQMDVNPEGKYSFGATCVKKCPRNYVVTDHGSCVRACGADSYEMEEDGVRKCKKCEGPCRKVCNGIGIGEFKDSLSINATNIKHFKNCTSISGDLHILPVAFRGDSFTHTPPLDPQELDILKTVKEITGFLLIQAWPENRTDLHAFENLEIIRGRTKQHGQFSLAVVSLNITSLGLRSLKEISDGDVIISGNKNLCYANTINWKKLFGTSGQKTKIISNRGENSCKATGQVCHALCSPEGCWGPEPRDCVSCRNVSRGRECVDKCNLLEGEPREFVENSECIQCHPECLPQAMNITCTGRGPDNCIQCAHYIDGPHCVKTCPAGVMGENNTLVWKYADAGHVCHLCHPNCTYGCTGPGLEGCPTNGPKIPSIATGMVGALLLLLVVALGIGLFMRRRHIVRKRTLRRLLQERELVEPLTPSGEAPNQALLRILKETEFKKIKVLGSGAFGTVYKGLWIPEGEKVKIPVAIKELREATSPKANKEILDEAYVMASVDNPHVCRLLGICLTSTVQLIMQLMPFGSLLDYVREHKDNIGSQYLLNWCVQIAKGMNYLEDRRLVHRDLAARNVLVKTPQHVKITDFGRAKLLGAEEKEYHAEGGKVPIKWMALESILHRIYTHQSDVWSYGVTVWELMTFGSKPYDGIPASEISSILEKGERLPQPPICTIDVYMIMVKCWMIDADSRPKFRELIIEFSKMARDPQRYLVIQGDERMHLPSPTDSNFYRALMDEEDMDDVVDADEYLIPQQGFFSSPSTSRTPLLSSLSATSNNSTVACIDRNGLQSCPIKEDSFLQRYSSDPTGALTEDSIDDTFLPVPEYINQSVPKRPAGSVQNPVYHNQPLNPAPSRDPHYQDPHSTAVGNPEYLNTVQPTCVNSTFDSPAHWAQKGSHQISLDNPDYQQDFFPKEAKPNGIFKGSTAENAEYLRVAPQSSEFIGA
Assay: Biochemical EGFR kinase inhibition assay (Lance Ultra TR-FRET), triple mutant L858R/T790M/C797S
Conditions: Km ATP; read-out: IC50 L858R/T790M/C797S (nM), Km ATP
Let's look at some compounds and their measured IC50.
The reply should contain only the number, in nM.

Query `O=S(=O)(C1CC1)n1cc(-c2nccc(Nc3cc(N4CCC[C@@H](O)C4)c(C#Cc4cnn(CCF)c4)cn3)n2)cn1` yields IC50 of 0.5

Query CC1(CO)CCN(c2cc(Nc3ccnc(-c4cnn(S(=O)(=O)C5CC5)c4)n3)ncc2C#CC2(O)CCOC2)CC1 (stereo not shown) yields IC50 of 0.1

Query CN(C)CCC1CCCN(c2cc(Nc3ccnc(-c4cnn(S(=O)(=O)C5CC5)c4)n3)ncc2C#Cc2cnn(C)c2)C1 (stereo not shown) yields IC50 of 0.1

Query CC1(O)CCN(c2cc(Nc3ccnc(-c4cnn(S(=O)(=O)C5CC5)c4)n3)ncc2C#CC2(F)CCOC2)CC1 (stereo not shown) yields IC50 of 0.1

Query `COC1(O)CCN(c2cc(Nc3ccnc(-c4cnn(S(=O)(=O)C5CC5)c4)n3)ncc2C#Cc2ncc(CN3CCOCC3)cn2)CC1` yields IC50 of 0.1

Query CN1CCC(C#Cc2cnc(Nc3ccnc(-c4cnn(S(=O)(=O)C5CC5)c4)n3)cc2N2CCC3(CCO3)CC2)C1 (stereo not shown) yields IC50 of 0.1

Query O=S(=O)(C1CC1)n1cc(-c2nccc(Nc3cc(NC4CCC(O)CC4)c(C#CC4(F)CCOC4)cn3)n2)cn1 (stereo not shown) yields IC50 of 0.1

---

Biological target: EGFR L858R/T790M/C797S (Homo sapiens, UniProt P00533, C797S/L858R/T790M)
Test: Biochemical EGFR kinase inhibition assay (Lance Ultra TR-FRET), triple mutant L858R/T790M/C797S
Settings: Km ATP; read-out: IC50 L858R/T790M/C797S (nM) Km ATP
For each record, check the reported IC50: if it is below 0.5 nM write true (1), else write false (0).

Worked examples follow.
CC1(CO)CCN(c2cc(Nc3ccnc(-c4cnn(S(=O)(=O)C5CC5)c4)n3)ncc2C#Cc2cnn(CC3CCOCC3)c2)CC1 [Example 231]    false (0)
Cn1cc(C#Cc2cnc(Nc3ccnc(-c4cnn(S(=O)(=O)C5CC5)c4)n3)cc2N2CCC3(CCNC3=O)CC2)cn1 [Example 79]    true (1)

// switching to the query molecule
Dear reviewer, please state whether Cn1cc(C#Cc2cnc(Nc3ccnc(-c4cnn(S(=O)(=O)C5CC5)c4)n3)cc2NC2CCCCC2)cn1 [Example 2] has IC50 strictly beneath 0.5 nM. false (0)

Taken from patent US11981658B2.
